Assay: Plasma AUC (0-24 h) in monkey at 3 mg/kg, po
Assay type: ADME, organism-based, Macaca mulatta
Parameters: time < 24 hr, dose 3 mg/kg, route oral
Settings: rhesus monkey
PROPERTY: AUC(0-t) at 24 h (µM·h)
Field format: number, assumed µM·h, no unit text.

Requested field: AUC(0-t) at 24 h. Item: c1nc(CC2CCN(CCCOc3ccc(CN4CCCCC4)cc3)CC2)c[nH]1
3.2

* * *

Molecular target: Cytochrome P450 2D6 (Homo sapiens, UniProt P10635)
Sequence (P10635 whole entry): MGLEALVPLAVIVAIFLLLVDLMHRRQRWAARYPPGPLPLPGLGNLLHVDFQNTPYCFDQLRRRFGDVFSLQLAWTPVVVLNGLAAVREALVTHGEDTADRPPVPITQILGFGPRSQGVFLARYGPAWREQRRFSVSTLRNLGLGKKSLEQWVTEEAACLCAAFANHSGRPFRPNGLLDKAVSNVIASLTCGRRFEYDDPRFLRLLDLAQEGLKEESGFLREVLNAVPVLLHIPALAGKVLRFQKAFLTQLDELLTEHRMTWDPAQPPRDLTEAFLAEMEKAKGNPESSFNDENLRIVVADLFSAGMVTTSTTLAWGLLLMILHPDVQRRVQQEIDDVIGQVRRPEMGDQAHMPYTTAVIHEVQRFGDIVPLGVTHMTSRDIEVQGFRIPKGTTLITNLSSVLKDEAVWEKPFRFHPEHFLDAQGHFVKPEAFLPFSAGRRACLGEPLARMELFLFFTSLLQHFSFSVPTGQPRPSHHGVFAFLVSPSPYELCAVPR
Experiment: Inhibition of CYP2D6 by human liver microsome assay
Format: ADME, microsomes
PROPERTY: IC50 (nM)
Field format: number, assumed nM, no unit text.

c1cncc(-c2ccc(OCCCN3CCC(Cc4cnc[nH]4)CC3)cc2)c1
300
c1cnc(-c2ccc(OCCCN3CCC(Cc4cnc[nH]4)CC3)cc2)nc1
6000
O=C(CCOc1ccc(CN2CCCCC2)cc1)N1CCC(Cc2cnc[nH]2)CC1
1000
c1ncc(CC2CCN(CCCOc3ccc(NC4CCCCC4)cc3)CC2)[nH]1
900
O=C(Nc1nccs1)N1CCC(Cc2cnc[nH]2)CC1
2000

Requested field: IC50. Item: c1nc(CC2CCN(CCCOc3ccc(N4CCCCC4)cc3)CC2)c[nH]1
1000

Requested field: IC50. Item: c1ccc(OCCCN2CCC(Cc3c[nH]cn3)CC2)cc1
30

Requested field: IC50. Item: c1nc(CC2CCN(CCCOc3ccc(CN4CCCCC4)nc3)CC2)c[nH]1
3000

Requested field: IC50. Item: c1ncc(CC2CCN(CCCOc3ccc(OC4CCCCC4)cc3)CC2)[nH]1
300

Requested field: IC50. Item: c1cc(CN2CCCCC2)cc(OCCCN2CCC(Cc3cnc[nH]3)CC2)c1
3000

Requested field: IC50. Item: O=C(c1ccc(OCCCN2CCC(Cc3cnc[nH]3)CC2)nc1)N1CCCCC1
2000

Requested field: IC50. Item: c1cnc2ccc(OCCCN3CCC(Cc4cnc[nH]4)CC3)cc2c1
2000

Requested field: IC50. Item: O=C(CCc1ccc(CN2CCCCC2)cc1)N1CCC(Cc2c[nH]cn2)CC1
3000

Cited source for all entries: ChEMBL document CHEMBL1138111
